# Target Desc: human ether-à-go-go-related gene (hERG) potassium channel (human);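 further: peak tail current of the secondary pulse compared with the same well before compound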
# Sequence (Q12809 whole entry, looked up): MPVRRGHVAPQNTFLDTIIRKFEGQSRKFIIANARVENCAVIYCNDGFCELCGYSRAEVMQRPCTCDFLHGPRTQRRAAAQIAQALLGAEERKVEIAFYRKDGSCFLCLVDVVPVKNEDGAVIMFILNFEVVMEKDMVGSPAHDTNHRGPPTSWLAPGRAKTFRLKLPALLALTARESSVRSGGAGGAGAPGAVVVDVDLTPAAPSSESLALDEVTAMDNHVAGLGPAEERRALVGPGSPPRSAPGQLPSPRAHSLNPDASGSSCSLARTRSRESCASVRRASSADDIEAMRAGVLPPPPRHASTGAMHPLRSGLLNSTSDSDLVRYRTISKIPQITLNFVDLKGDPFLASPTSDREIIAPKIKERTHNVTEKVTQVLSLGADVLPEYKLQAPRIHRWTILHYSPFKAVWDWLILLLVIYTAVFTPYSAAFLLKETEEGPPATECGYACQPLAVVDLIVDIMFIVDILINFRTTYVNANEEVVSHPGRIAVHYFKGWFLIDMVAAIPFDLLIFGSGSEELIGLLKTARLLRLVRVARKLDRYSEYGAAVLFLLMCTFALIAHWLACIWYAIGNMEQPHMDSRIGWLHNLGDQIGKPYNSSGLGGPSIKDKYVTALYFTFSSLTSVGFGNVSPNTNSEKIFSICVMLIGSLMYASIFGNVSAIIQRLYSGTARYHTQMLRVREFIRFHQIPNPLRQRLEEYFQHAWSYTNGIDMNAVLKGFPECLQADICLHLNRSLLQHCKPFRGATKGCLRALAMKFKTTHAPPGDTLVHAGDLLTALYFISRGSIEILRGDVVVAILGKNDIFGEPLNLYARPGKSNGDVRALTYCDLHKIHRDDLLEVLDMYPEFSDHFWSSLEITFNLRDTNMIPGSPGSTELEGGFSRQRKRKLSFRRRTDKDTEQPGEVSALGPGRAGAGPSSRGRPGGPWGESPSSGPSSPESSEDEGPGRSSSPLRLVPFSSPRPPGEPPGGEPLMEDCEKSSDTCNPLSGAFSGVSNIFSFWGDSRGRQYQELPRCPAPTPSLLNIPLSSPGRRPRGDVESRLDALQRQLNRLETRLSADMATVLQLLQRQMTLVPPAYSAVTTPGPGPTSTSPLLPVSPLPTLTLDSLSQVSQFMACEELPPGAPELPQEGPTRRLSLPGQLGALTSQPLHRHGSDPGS
# Test Description: primary screen, population patch clamp on CHO cells stably expressing hERG; higher = less effect of the substance
Screen size: about 310,000 compounds; about 14,000 (4.5%) showed an effect of 50% or more. The effect is printed as a negative number. The entries come from a sample that favours strong results as a whole.
Readout: hERG current change (%, negative = inhibition) at 10uM (%)
Give bare numbers, in %.

Use these answered entries as a reference point.
CCCN(CC(=O)Nc1ccc(F)c(F)c1F)C(=O)c1ccc(N2CCCC2=O)cc1 | -4.37
CCOC(=O)c1cn2nc(Oc3ccc(OC)cc3)ccc2n1 | 4.29

Please go through the list and note hERG current change (%, negative = inhibition) at 10uM for each molecule.
1. C=CCn1c(SCC(=O)Nc2c(C)n(C)n(-c3ccccc3)c2=O)nc2scc(-c3ccccc3)c2c1=O
2. CC(=O)Nc1scc(-c2ccccc2)[n+]1-c1ccc(C)cc1.[Br-]
3. CCn1c(-c2cc(OC)c(OC)c(OC)c2)n[nH]c1=S
4. O=C(O)C(=O)O.c1ccc(-c2ccccc2OCCCN2CCCCCC2)cc1
5. Cn1c(CCc2ccccc2)nnc1SCC(N)=O
6. CCOC(=O)c1cn2nc(Oc3ccc(C#N)cc3)ccc2n1
7. Cc1ccc(-c2cc(-c3ccccc3)c(C#N)c(Br)n2)cc1

-56
1.06
12.1
-80.1
15.3
-54.1
-4.18

Please go through the list and note hERG current change (%, negative = inhibition) at 10uM for each molecule.
1. Cn1c(N)c(C(=O)CNC2CCCCC2)c(=O)n(C)c1=O
2. CCN(CC)S(=O)(=O)c1cccc(C(=O)OC2CC(C)OC2=O)c1 (stereo not shown)
3. COc1ccc(/C=C2\SC(=S)N(CCC(=O)Nc3ccccn3)C2=O)cc1OC
4. Cc1nnc(SCC(=O)c2ccc(Cl)cc2)s1
5. COc1ccc(-c2cc(C(=O)Nc3ccccc3O)c3ccccc3n2)cc1
6. COc1cc(C)c(NC(=S)Nc2cccc(Cl)c2)cc1OC

5.61
12.7
26.2
-9.82
13.1
6.72

Please go through the list and note hERG current change (%, negative = inhibition) at 10uM for each molecule.
1. O=C(COC(=O)c1ccc(O)cc1O)Nc1cc(-c2ccccc2)nn1-c1ccccc1
2. Cc1ccc([N+](=O)[O-])cc1N(CC(=O)N1CCCCC1)S(C)(=O)=O

1: -9.42; 2: 12.2

Please go through the list and note hERG current change (%, negative = inhibition) at 10uM for each molecule.
1. O=C(Cn1nc(-c2ccc(F)cc2)ccc1=O)Nc1ccc2c(c1)OCCO2
2. Cc1cc(C)n(S(=O)(=O)c2cccc([N+](=O)[O-])c2)n1
3. COc1cc2cnc(-c3ccccc3)c(-c3cc(OC)c(OC)c(OC)c3)c2cc1OC
4. COc1ccc(OCc2cccc(C(=O)NN)c2)cc1
5. NC(=O)C1CCN(C(=O)c2cc3n(n2)C(C(F)(F)F)CC(c2ccco2)N3)CC1 (stereo not shown)
6. Cc1nnc(SCC(=O)Nc2cc(C(C)(C)C)nn2-c2ccccc2)s1
7. Cc1cccc2cc3c(NC(=O)CC(C)C)nn(C)c3nc12

1: -0.525; 2: 3.73; 3: -0.323; 4: 2.35; 5: 14.8; 6: -12.9; 7: 10.2

This collection of values is drawn from paper PMC4336329.
